TEST DETAILS: circular dichroism
APPLIED CONDITIONS: PBS; pH 7.4; rt °C; 100 uM
Bridge positions count the residues as written; N and C are the ends. Square brackets hold non-standard residues; d marks the D form. Peptide text beside a SMILES is read from it. R8 = C=CCCCCCC[C@@](C)(N)C(=O)O; S5 = C=CCCC[C@](C)(N)C(=O)O
Please go through the items and note down their helicity.
Field format: number, assumed %, no unit text.

Exercise: Give the reported helicity for this compound. CC(=O)N[C@@H](Cc1c[nH]cn1)C(=O)N[C@@H](CCC(=O)O)C(=O)N[C@@]1(C)CCCC=CCCC[C@@](C)(C(=O)N[C@@H](Cc2ccc(O)cc2)C(=O)N[C@@H](CCC(N)=O)C(=O)N[C@@H](CO)C(N)=O)NC(=O)[C@H](CC(C)C)NC(=O)[C@H](CC(=O)O)NC(=O)[C@H](CCC(=O)O)NC1=O (Ac-HE[S5]EDL[S5]YQS-NH2; staple 3-7)
Key: 33.4

Exercise: Could you please provide reported helicity for CC(=O)N[C@H](C(=O)N[C@@]1(C)CCCC=CCCC[C@@](C)(C(=O)N[C@@H](CC(N)=O)C(=O)N[C@@H](Cc2c[nH]cn2)C(=O)N[C@@H](CCC(=O)O)C(=O)N[C@@H](C)C(=O)N[C@@H](CCC(=O)O)C(=O)N[C@@H](CC(=O)O)C(=O)N[C@@H](CC(C)C)C(N)=O)NC(=O)[C@H](CCCCN)NC(=O)[C@H](CC(=O)O)NC(=O)[C@H](CC(C)C)NC1=O)[C@@H](C)O ? Thanks!
Key: 21

Exercise: Find the measured helicity of CC(=O)N[C@H](C(=O)N[C@@H](Cc1ccccc1)C(=O)N[C@]1(C)CCCCCC/C=C/CCC[C@@](C)(C(=O)N[C@@H](CCC(=O)O)C(=O)N[C@@H](CC(=O)O)C(=O)N[C@@H](CC(C)C)C(N)=O)NC(=O)[C@H](CCC(=O)O)NC(=O)[C@H](Cc2c[nH]cn2)NC(=O)[C@H](CC(N)=O)NC(=O)[C@H](Cc2ccccc2)NC(=O)[C@H](CCCCN)NC(=O)[C@H](CC(=O)O)NC1=O)[C@@H](C)O (Ac-TF[R8]DKFNHE[S5]EDL-NH2; staple (E) 3-10) and report it.
Key: 16.1

Exercise: Name the recorded helicity of the item CC[C@H](C)[C@H](NC(C)=O)C(=O)N[C@@H](CCC(=O)O)C(=O)N[C@@H](CCC(=O)O)C(=O)N[C@@H](CCC(N)=O)C(=O)N[C@]1(C)CCCCCC/C=C/CCC[C@@](C)(C(=O)N[C@@H](CC(N)=O)C(=O)N[C@@H](Cc2c[nH]cn2)C(=O)N[C@@H](CCC(=O)O)C(N)=O)NC(=O)[C@H](CCCCN)NC(=O)[C@H](CC(=O)O)NC(=O)[C@H](CC(C)C)NC(=O)[C@H](Cc2ccccc2)NC(=O)[C@H]([C@@H](C)O)NC(=O)[C@H](CCCCN)NC1=O (Ac-IEEQ[R8]KTFLDK[S5]NHE-NH2; staple (E) 5-12) in your answer.
Key: 12.2

---

Kindly supply the reported % Helicity values for the records listed here.
Type: physicochemical
APPLIED CONDITIONS: pH 7.4
Express the result in % but write the number alone.

Exercise: Given Ac-IEEQAKTFR8DKFNHES5EDLFYQS-NH2 (sidechain bridge or staple) [Peptide 5] , respond with its % Helicity.
Key: 31.3

Exercise: Tell me its % Helicity given Ac-IEEQAR8TFLDKFS5HEAEDLFYQS-NH2 (sidechain bridge or staple) [Peptide 4] as the entry.
Key: 57.9

Exercise: Provide % Helicity value for the following substance: Ac-IEEQAKTFLDKFNHE-NH2 [Peptide 11]
Key: 9.6

Exercise: Quick one: give measured % Helicity for Ac-IEEQAKTFLDKFR8HEAEDLS5YQS-NH2 (sidechain bridge or staple) [Peptide 7]
Key: 54.5

---

Assay type: physicochemical
APPLIED CONDITIONS: pH 7.4
Please provide measured % Helicity for the entries that follow.
Field: numeric (%). Do not append units.

Exercise: Give the value of % Helicity reported for the following: Ac-IEEQR8KTFLDKS5NHE-NH2 (sidechain bridge or staple) [Peptide 12]
Key: 12.2

Exercise: Quickly give me recorded % Helicity for Ac-IR8EQAKTFS5LKFNHEAEDLFYQS-NH2 (sidechain bridge or staple) [Peptide 2]
Key: 35.4

Exercise: Answer with the recorded % Helicity of Ac-IEEQAKTFLDKR8NHEAEDS5FYQS-NH2 (sidechain bridge or staple) [Peptide 6] only.
Key: 23.5

Exercise: Given the substance Ac-IEEQR8KTFLDKS5NHEAEDLFYQS-NH2 (sidechain bridge or staple) [Peptide 3] , write its reported % Helicity.
Key: 55.6

Exercise: Please report the measured % Helicity for Ac-TS5LDKS5NHEAEDL-NH2 (sidechain bridge or staple) [Peptide 15]
Key: 21.0

Exercise: Look up and state reported % Helicity for Ac-HEAEDLFYQS-NH2 [Peptide 9]
Key: 5.9

Exercise: Please report the measured % Helicity for Ac-TFLDKFNHEAEDL-NH2 [Peptide 13]
Key: 8.6

Exercise: Give % Helicity for Ac-TFR8DKFNHES5EDL-NH2 (sidechain bridge or staple) [Peptide 14]
Key: 16.1
